Target: T1, LRRC7, Q96NW7
T1 sequence (Q96NW7 1440-1537, limits assumed, looked up): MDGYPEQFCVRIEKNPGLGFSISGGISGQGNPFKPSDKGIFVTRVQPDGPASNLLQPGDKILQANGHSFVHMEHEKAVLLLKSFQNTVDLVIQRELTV
Assay: holdup assay
Design: key: below the threshold = too weak to quantify, mostly under pKd 3.1 to 4
Conditions: plain residues with an end cap or a label only (N-terminal biotin on a linker: ado-ado)
value kind: pKd

binder | pKd
KSGKQTMLVV [TRIM29, Q14134;Q14134-2] | below the threshold
VKPQVSESKL [ACOT8, O14734] | below the threshold
QSPANIYYKV [EFNB1, P52799] | below the threshold
DTTVPESEDL [MYOZ2, Q9NPC6] | below the threshold

pKd recorded for this binder, EALLQMESVA [CAVIN3, Q969G5] , is below the threshold

pKd recorded for this binder, GSGAVEMESV [AQP6, Q13520] , is below the threshold

pKd recorded for this binder, SKSNFGSEPL [KIF17, Q9P2E2] , is below the threshold

pKd recorded for this binder, SKENVQETQI [LRRC4B, Q9NT99] , is below the threshold
